# TARGET ENTITY: Cytochrome P450 2D6 (Homo sapiens, UniProt P10635)
# Sequence (P10635 whole entry): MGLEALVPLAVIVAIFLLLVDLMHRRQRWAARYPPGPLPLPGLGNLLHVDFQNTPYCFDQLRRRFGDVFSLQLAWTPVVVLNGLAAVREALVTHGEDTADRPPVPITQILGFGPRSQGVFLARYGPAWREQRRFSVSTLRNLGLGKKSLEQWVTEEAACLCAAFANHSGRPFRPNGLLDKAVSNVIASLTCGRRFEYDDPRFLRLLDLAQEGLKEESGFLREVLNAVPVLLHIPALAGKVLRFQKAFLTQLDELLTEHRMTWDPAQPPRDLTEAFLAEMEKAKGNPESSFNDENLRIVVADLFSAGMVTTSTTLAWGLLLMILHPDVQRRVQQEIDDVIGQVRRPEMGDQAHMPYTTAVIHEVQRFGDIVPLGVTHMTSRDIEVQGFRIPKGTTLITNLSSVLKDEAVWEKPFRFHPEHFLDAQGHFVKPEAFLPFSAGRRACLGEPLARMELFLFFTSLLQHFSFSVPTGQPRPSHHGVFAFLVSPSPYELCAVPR
pIC50: −log10 of the molar value.
ASSAY METRIC: pIC50

Input: # query: pIC50 of entry CC(C)n1nc(-c2cc(C3CC3)on2)c2c(N)ncnc21
Output: < 4.52

====

# TARGET ENTITY: Proto-oncogene tyrosine-protein kinase receptor Ret (Homo sapiens, UniProt P07949, Y791F)
# Sequence (P07949 29-1114 Y791F limits assumed): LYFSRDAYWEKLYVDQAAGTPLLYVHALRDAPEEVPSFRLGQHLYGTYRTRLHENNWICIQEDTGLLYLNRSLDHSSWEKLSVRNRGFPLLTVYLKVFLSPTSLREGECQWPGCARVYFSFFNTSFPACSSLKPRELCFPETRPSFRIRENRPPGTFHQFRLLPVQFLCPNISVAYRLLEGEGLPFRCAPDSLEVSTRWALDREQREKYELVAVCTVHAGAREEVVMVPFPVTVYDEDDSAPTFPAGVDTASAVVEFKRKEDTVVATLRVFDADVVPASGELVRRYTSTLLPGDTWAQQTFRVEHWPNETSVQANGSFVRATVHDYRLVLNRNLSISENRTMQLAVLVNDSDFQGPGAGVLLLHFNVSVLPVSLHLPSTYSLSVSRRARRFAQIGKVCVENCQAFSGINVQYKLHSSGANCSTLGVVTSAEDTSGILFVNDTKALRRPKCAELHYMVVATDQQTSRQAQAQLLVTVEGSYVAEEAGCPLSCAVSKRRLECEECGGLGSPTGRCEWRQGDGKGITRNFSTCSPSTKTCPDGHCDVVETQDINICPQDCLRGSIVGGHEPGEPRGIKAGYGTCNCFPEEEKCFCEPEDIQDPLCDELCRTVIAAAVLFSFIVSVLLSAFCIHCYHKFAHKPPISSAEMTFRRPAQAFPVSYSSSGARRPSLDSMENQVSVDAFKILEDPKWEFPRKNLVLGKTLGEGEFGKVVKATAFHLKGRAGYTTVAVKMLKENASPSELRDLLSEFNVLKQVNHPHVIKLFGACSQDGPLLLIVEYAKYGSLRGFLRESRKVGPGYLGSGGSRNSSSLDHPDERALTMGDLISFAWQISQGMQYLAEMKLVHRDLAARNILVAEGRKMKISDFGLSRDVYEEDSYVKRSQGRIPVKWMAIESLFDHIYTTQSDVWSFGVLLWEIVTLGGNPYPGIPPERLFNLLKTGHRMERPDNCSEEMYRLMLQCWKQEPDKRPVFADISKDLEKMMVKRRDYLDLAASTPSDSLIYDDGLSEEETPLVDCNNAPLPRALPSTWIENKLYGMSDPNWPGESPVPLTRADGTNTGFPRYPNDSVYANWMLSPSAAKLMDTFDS
# ASSAY DETAILS: Inhibition of human Ret Y791F mutant by radiometric assay in presence of [gamma-33P]-ATP
ASSAY METRIC: pIC50
As a rule, pIC50 stands for the negative log10 of the concentration, concentration in M.

In [3]: df
Out[3]:
                      chemical_string  recorded_value
0  CC(C)n1nc(C#Cc2ccccc2)c2c(N)ncnc21            7.85

Input: # query: pIC50 of entry CC(C)n1nc(-c2cc(C3CC3)on2)c2c(N)ncnc21
Output: 8.52
